assay system: Human CD3eg linker (human)
Sequence (chain, as listed by the source limits assumed): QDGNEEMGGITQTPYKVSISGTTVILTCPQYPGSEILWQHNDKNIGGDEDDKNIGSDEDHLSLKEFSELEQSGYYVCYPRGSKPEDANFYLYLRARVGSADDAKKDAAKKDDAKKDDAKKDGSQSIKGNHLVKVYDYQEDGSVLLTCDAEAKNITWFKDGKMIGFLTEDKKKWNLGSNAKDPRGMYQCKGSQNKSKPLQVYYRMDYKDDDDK
assay notes: SPR; fold vs parent H183/L072
recorded metric: fold change of affinity (fold)
The answer is to be given in fold; state only the numeric part.

The measured fold change of affinity associated with H183/L072 VL G91L (antibody, name in Kabat numbering, V domains shown) VH: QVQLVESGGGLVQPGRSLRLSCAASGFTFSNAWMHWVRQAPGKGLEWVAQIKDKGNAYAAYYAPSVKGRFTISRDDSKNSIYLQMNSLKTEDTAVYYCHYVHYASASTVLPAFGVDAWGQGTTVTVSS VL: DIVMTQSPLSLPVTPGEPASISCQASQELVHMNRNTYLHWYQQKPGQAPRLLIYKVSNRFPGVPDRFSGSGSGTDFTLKISRVEAEDVGVYYCAQLTSVPFTFGQGTKLEIK reads 0
